biological target: RSV fusion glycoprotein (RSV F) on RSV-A2 virus (respiratory syncytial virus, UniProt P03420 26-574); assay: cell-based or functional assay
metric.name: Neutralization IC50 (RSV subtype A)

Task: Specify Neutralization IC50 (RSV subtype A) for ADI-41350 (antibody, V domains shown, IgG1) VH: EVQLVESGAGLVQPGGSLRLSCAASGFTFSTYAVSWVRQAPGKGLEWVSAISGSGASTYFADSVKGRFTISRDNSKNTLYLQMNSLRAEDTAVYYCAKARLELRPYYYGMDVWGQGTTVTVSS VL: QPVLTQPASVSGSPGQSITISCTGTSSDVGGYNFVSWYQQHPGKAPKLIIYEVSNRPSGVSNRFSGSKSGNTASLTISGLQAEDEADYYCSSSTLSTTYVFGTGTKVTVL and stop.
Output: > 25 µg/mL

Task: Specify Neutralization IC50 (RSV subtype A) for ADI-41433 (antibody, V domains shown) VH: EVQLLESGGGAVQPGRFLRLSCAASGFTFRSYGMHWVRQAPGKGLEWVAVISYDGSDKYYADSVKGRFTISRDNSKNTLFLLMNGLRAEDAAVYYCAKDIASAGTLRGSDVWGQGTMVTVSS VL: QPVLTQPRSVSGSPGQSVTISCTGTSSDVGGFNYVSWYQQHPGKAPKLMIYDVRVRPSGVPDRFSGSKSGNTASLTISGLQGEDEADYYCCSYTVTYTLVFGGGTKLTVL and stop.
Output: > 25 µg/mL

These measurements were taken from patent US20260258115A1.
